- System: [^3 H]TdR incorporation into DNA in HL-60 cells
- EXPERIMENT_NOTES: Inhibition of [3H]TdR incorporation into DNA in HL-60 cells (initial 30 min)
- Format: cell-based, human
- EXPERIMENTAL_CONTEXT: Homo sapiens, 0.5 h; HL-60, initial 30 min exposure; read-out: ID50, M (HL-60 TdR into DNA (B))
- Experimental: For precursor incorporation studies, each compound at four to six concentrations (0.2% DMSO) was preincubated with HL-60 cells (2.5×10^6 /Ml) for 15 min prior to the addition of [^3 H-methyl]TdR (1 μCi, 0.15 nmol/mL) and was incubated for 30 min. […] The incorporation of radioactivity in DNA in the absence of an analogue in the presence of DMSO was used as a control.
pIC50: −log10 of the molar value.
RECORDED_METRIC: pIC50

> print(dat)
                                   molecule  recorded.value
1  CCN(CC)Cc1cc(OC)c2c(c1)C(=O)c1cccc(OC)c1C2=O [IXa-1]            4.72

(P) NCc1cc(O)c2c(c1)C(=O)c1cccc(O)c1C2=O [XIa-8]
(Q) COc1cc(O)c2c(c1)C(=O)c1cc(C(Br)Br)cc(O)c1C2=O [VIIIb]
(R) COc1cc(O)c2c(c1)C(=O)c1cc(CN(CCO)CCO)cc(O)c1C2=O [XIb-2]
(S) COc1cccc2c1C(=O)c1c(OC)cc(CBr)cc1C2=O [IIIa]
Endpoint returns the given molecules ordered by ascending pIC50. Put the labels in the requested order and write them down.
Q, R, P, S
